Assay: A CellTox Green Cytotoxicity Assay to monitor cytotoxicity in HEK293 cells - 8 hour (AID 1224884); further: nearly all actives have a fitted effect of over 35% in size
Conditions: CellTox Green fluorescence; series mostly up to 76.8 µM
Results filed as inconclusive are left out. Active and inactive are the calls of the source. The call rests on the fitted dose curve; in most records, active means well fitted activation curve with a large enough effect in the repeat runs; inconclusive means weak or mixed curves; inactive means flat fitted curve, though single readings scatter.
I would appreciate it if you answered using one of these outcomes: active, inactive

# molecule, category
data = [
    ("O=C(O)c1ccccc1C(=O)Nc1cccc2ccccc12", "inactive"),
]

Let's switch to this molecule now.
stdin: Hey, what did the test say about COP(=O)(OC)O/C(=C/Cl)c1cc(Cl)c(Cl)cc1Cl ?
stdout: inactive

----------
Target: Peroxisome proliferator-activated receptor gamma (Homo sapiens) (UniProt P37231)
Sequence (P37231 whole entry, looked up): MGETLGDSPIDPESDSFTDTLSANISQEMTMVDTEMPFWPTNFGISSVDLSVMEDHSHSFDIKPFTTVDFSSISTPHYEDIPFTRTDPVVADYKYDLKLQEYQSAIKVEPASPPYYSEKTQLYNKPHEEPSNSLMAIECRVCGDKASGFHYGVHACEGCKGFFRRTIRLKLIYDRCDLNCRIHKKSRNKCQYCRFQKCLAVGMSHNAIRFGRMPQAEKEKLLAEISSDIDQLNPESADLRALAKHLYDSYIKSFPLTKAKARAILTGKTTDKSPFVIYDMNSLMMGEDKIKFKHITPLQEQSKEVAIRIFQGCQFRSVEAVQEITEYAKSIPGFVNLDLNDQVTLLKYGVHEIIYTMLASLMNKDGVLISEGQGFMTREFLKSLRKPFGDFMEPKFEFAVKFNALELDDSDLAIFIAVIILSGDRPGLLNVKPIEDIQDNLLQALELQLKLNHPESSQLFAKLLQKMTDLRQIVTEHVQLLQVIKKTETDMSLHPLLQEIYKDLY
Test: qHTS assay to identify small molecule antagonists of the peroxisome proliferator-activated receptor gamma (PPARg) signaling pathway (AID 743191); further: nearly all actives have a fitted effect of over 30% in size
Conditions: HEK293H PPARg-UAS-bla, beta-lactamase ratio, antagonist, 17 h; series mostly up to 62.6 µM
Description: U.S. Tox21 Program National Center for Advancing Translational Sciences [NCATS] NIH Chemical Genomics Center [NCGC] U.S. Environmental Protection Agency [EPA] National Institutes of Environmental Health Sciences [NIEHS] National Toxicology Program [NTP] U.S. Food and Drug Administration [FDA] […]
Results filed as inconclusive are left out. Calls of active or inactive are those of the source. Calls come from the whole dose curve.
Output constraint: value belongs to active, inactive

Solved cases (5 shown):
# compound, target_system, category
measured = [
    ("C/C=C/C=O", "Peroxisome proliferator-activated receptor gamma (Homo sapiens) (UniProt P37231)", "inactive"),
    ("Cc1ccccc1C(=O)Nc1cccc(OC(C)C)c1", "Peroxisome proliferator-activated receptor gamma (Homo sapiens) (UniProt P37231)", "active"),
    ("C=CC(=O)OCCCCO", "Peroxisome proliferator-activated receptor gamma (Homo sapiens) (UniProt P37231)", "inactive"),
    ("BrCC(Br)C1CCC(Br)C(Br)C1 (stereo not given)", "Peroxisome proliferator-activated receptor gamma (Homo sapiens) (UniProt P37231)", "inactive"),
    ("Clc1ccc(C2(Cn3cncn3)CC(Br)CO2)c(Cl)c1 (stereo not given)", "Peroxisome proliferator-activated receptor gamma (Homo sapiens) (UniProt P37231)", "inactive"),
]

stdin: What was the test verdict on ClCC(Br)CBr (stereo not given) ?
stdout: inactive

stdin: Query CCO[C@H]1O[C@@H]2OC3(C)CC[C@H]4[C@H](C)CC[C@@H]([C@H]1C)[C@@]24OO3 next
stdout: inactive

stdin: One more compound: O=C(N[C@H](c1ccccc1)[C@@H]1CN2CCC1CC2)c1c(Cl)ccc(C(F)(F)F)c1Cl
stdout: active

stdin: Would you mind doing COP(=S)(OC)Oc1ccc([N+](=O)[O-])cc1Cl as well?
stdout: inactive

stdin: What about O=NN1CCNCC1 ?
stdout: inactive

stdin: Field entry: C=C(C#N)CCC#N
stdout: inactive

stdin: // same read-out, input: CCC(Cl)CCl (stereo not given)
stdout: inactive

----------
Target: Aromatase (Homo sapiens)
Assay: qHTS assay to identify aromatase inhibitors (AID 743083); further: nearly all actives have a fitted effect of over 55% in size
Conditions: MCF-7 aro ERE, testosterone-driven ERE luciferase, 24 h; series mostly up to 70.3 µM
Results filed as inconclusive are left out. Active and inactive are the calls of the source. Calls come from the whole dose curve; as a rule, active = well fitted inhibition curve with a large enough effect in the repeat runs; inconclusive = weak or mixed curves; inactive = no such curve, though single readings can be large or run the other way.
Write down one outcome, taken from Y for active, N for inactive

Example entries and their recorded answers appear below.
# molecule, target_system, category
measured = [
    ("c1cc2ccc3cccc4ccc(c1)c2c34", "Aromatase (Homo sapiens)", "N"),
    ("CC[C@H]1C[C@H]2[C@@H]3CCC4=CC(=O)CC[C@@H]4[C@H]3CC[C@]2(C)[C@H]1O", "Aromatase (Homo sapiens)", "N"),
    ("O=C(O)CC(Cl)C(=O)O (centres undefined)", "Aromatase (Homo sapiens)", "N"),
    ("C=CCOC(C)=O", "Aromatase (Homo sapiens)", "N"),
]

stdin: Please let me know the test result on file for CC(C)(C)c1cc([N+](=O)[O-])cc([N+](=O)[O-])c1O .
stdout: Y

stdin: Entry O=C1C(=O)c2cccc3cccc1c23 please
stdout: N

stdin: Can you check O=NN1CCCCCC1 next?
stdout: N

stdin: Now the same for O=NN1CCNCC1
stdout: N

stdin: One more molecule: OCCCBr
stdout: N

stdin: Next molecule up: O=C(O)C1(c2ccc3c(c2)OC[C@H](Cc2ccc(-c4ccccc4)cc2)[C@H]3O)CCCC1
stdout: N

stdin: And what about the molecule Nc1nc(N)nc(N)n1 ?
stdout: N

stdin: Do the same for CCOP(=O)(OCC)O/C(=C/Cl)c1ccc(Cl)cc1Cl please
stdout: Y

stdin: Now consider Clc1cc(Cl)c(Cl)c(Cl)c1 .
stdout: N

stdin: Next record, please: ClCCCCBr
stdout: N
